test_summary: Inhibition of gamma secretase assessed as reduction in Abeta42 production
pIC50: −log10 of the molar value.
Measured pIC50 of individual entries

compound	pIC50
CC(C)c1cc(C(C)C)c(S(=O)(=O)n2c3ccccc3c3ccc(OCC(=O)O)cc32)c(C(C)C)c1	5.12
CC(C)CC(C(=O)O)c1cc(-c2ccc(C(F)(F)F)cc2)cc(-c2cc(C(F)(F)F)cc(C(F)(F)F)c2)c1 (racemic)	7.10
COc1cc(/C=C2\CCCN([C@H](c3cc(F)c(F)c(F)c3)[C@@H](C)O)C2=O)ccc1-n1cnc(C)n1	7.22
COc1cc(Nc2nc3n(n2)CCCC[C@@H]3c2ccc(OCC(F)(F)F)cc2)ccc1-n1cnc(Cl)c1	8.00
